Entry source: ChEMBL document CHEMBL1148584

Tested on: CHO
experimental.protocol: Cellular uptake in CHO cells at 10 uM
Type: ADME, cell-based, Cricetulus griseus
condition.info: chinese hamster
measure.name: Drug uptake (nmol/mg)
Form entry: value (nmol/mg) — number only.

[[record]]
molecule = "CN(c1ccccc1)C1c2ccccc2N=C(NCCCCN)C1(C)C (centres undefined)"
test_system = "CHO"
value = 13

[[record]]
molecule = "NCCCCNC1=Nc2ccccc2CC1"
test_system = "CHO"
value = 2.1

[[record]]
molecule = "NCCCCNCCCNC1=Nc2ccccc2CC1"
test_system = "CHO"
value = 11


The measured Drug uptake associated with NCCCNCCCCNCCCNC1=Nc2ccccc2CC1 reads 0.029

----------
Tested on: CHO
experimental.protocol: Cellular uptake in CHO cells at 50 uM
Assay type: ADME, cell-based, Cricetulus griseus
condition.info: chinese hamster
Decide using Drug uptake: a value greater than or equal to 1 nmol/mg is 1, a smaller one is -1.

# count of solved cases: 2
[[record]]
compound = "CN(c1ccccc1)C1c2ccccc2N=C(NCCCNCCCCNCCCN)C1(C)C (stereo not given)"
classification = 1

[[record]]
compound = "CC1C[C@]2(C)C(NCCCNCCCCNCCCN)=Nc3ccccc3[C@@H]2N(C)c2ccccc21 (stereo not given in full)"
classification = -1


Is reported Drug uptake greater than or equal to 1 nmol/mg here: CNc1ccc(C2c3ccccc3N=C(NCCCNCCCCN)C2(C)C)cc1 (stereo not given) 1

Is reported Drug uptake greater than or equal to 1 nmol/mg here: CNc1ccc(C2c3ccccc3N=C(NCCCCN)C2(C)C)cc1 (stereo not given) 1

Is reported Drug uptake greater than or equal to 1 nmol/mg here: CNc1cccc2c1[C@H](C)C[C@]1(C)C(NCCCNCCCCN)=Nc3ccccc3[C@H]21 1

----------
experimental.protocol: Selectivity for uptake CHO cell line over CHO-MG cell line at 50 uM
Assay type: functional, Cricetulus griseus
Collected Selectivity ratio values appear next to each entry.

[[record]]
molecule = "CN(c1ccccc1)C1c2ccccc2N=C(NCCCNCCCCNCCCN)C1(C)C (stereo not given)"
measure_name = "Selectivity ratio"
value = 1

[[record]]
molecule = "CC1C[C@]2(C)C(NCCCNCCCCNCCCN)=Nc3ccccc3[C@@H]2N(C)c2ccccc21 (stereo not given in full)"
measure_name = "Selectivity ratio"
value = 1

[[record]]
molecule = "CNc1ccc(C2c3ccccc3N=C(NCCCNCCCCN)C2(C)C)cc1 (stereo not given)"
measure_name = "Selectivity ratio"
value = 0.7

[[record]]
molecule = "CNc1cccc2c1[C@H](C)C[C@]1(C)C(NCCCNCCCCN)=Nc3ccccc3[C@H]21"
measure_name = "Selectivity ratio"
value = 1


The measured Selectivity ratio associated with CNc1ccc(C2c3ccccc3N=C(NCCCCN)C2(C)C)cc1 (stereo not given) reads 0.9

----------
System: L1210
experimental.protocol: Intracellular level of spermine in L1210 cells in the absence of DFMO at 10 uM
Assay type: functional, cell-based
condition.info: Mus musculus
Lab note - cut at 9 nmol/mg for Drug uptake: 1 (yes) if strictly below, 0 (no) if not.

# count of solved cases: 3
[[record]]
molecule = "NCCCNCCCCNCCCNC1=Nc2ccccc2CC1"
classification = "0 (no)"

[[record]]
molecule = "CNc1cccc2c1[C@H](C)C[C@]1(C)C(NCCCNCCCCNCCCN)=Nc3ccccc3[C@H]21"
classification = "1 (yes)"

[[record]]
molecule = "NCCCCNC1=Nc2ccccc2CC1"
classification = "0 (no)"


Input NCCCCNCCCNC1=Nc2ccccc2CC1 ; condition: Drug uptake strictly below 9 nmol/mg. Does it hold? 1 (yes)

Input CN(c1ccccc1)C1c2ccccc2N=C(NCCCNCCCCNCCCN)C1(C)C (configuration not stated) ; condition: Drug uptake strictly below 9 nmol/mg. Does it hold? 0 (no)

Input CC1C[C@]2(C)C(NCCCNCCCCNCCCN)=Nc3ccccc3[C@@H]2N(C)c2ccccc21 (some centres not stated) ; condition: Drug uptake strictly below 9 nmol/mg. Does it hold? 0 (no)

Input CNc1ccc(C2c3ccccc3N=C(NCCCNCCCCNCCCN)C2(C)C)cc1 (configuration not stated) ; condition: Drug uptake strictly below 9 nmol/mg. Does it hold? 0 (no)

----------
System: CHO-MG
experimental.protocol: Selectivity for uptake in CHO cell line over CHO-MG cell line at 10 uM
Type: functional, cell-based
condition.info: Cricetulus griseus
measure.name: Ratio
Lab note: record just the number, no unit beside it.

Use these answered entries as a reference point.
[[record]]
molecule = "CN(c1ccccc1)C1c2ccccc2N=C(NCCCCN)C1(C)C (centres undefined)"
test_system = "CHO-MG"
measure_name = "Ratio"
value = 1.1

[[record]]
molecule = "NCCCCNC1=Nc2ccccc2CC1"
test_system = "CHO-MG"
measure_name = "Ratio"
value = 5.7


The measured Ratio associated with NCCCNCCCCNCCCNC1=Nc2ccccc2CC1 reads 1.3

The measured Ratio associated with NCCCCNCCCNC1=Nc2ccccc2CC1 reads 6.9

----------
Test system: CHO
experimental.protocol: Cellular uptake in CHO cells at 25 uM
Format: ADME, cell-based, Cricetulus griseus
condition.info: chinese hamster
Collected Drug uptake values appear next to each entry.
Form entry: value (nmol/mg) — number only.

Use these answered entries as a reference point.
[[record]]
compound = "CC1C[C@]2(C)C(NCCCCN)=Nc3ccccc3[C@@H]2N(C)c2ccccc21 (stereo partly specified)"
value = 3.6

[[record]]
compound = "CNc1ccc(C2c3ccccc3N=C(NCCCNCCCCNCCCN)C2(C)C)cc1 (stereo unspecified)"
value = 0.72

[[record]]
compound = "CNc1cccc2c1[C@H](C)C[C@]1(C)C(NCCCNCCCCNCCCN)=Nc3ccccc3[C@H]21"
value = 2.2

[[record]]
compound = "CN(c1ccccc1)C1c2ccccc2N=C(NCCCNCCCCN)C1(C)C (stereo unspecified)"
value = 2.9

[[record]]
compound = "NCCCCNCCCNC1=Nc2ccccc2CC1"
value = 15.4


The measured Drug uptake associated with CNc1cccc2c1[C@H](C)C[C@]1(C)C(NCCCCN)=Nc3ccccc3[C@H]21 reads 8.1

----------
Test system: CHO-MG
experimental.protocol: Cellular uptake in CHO-MG cells at 50 uM
Assay type: ADME, cell-based, Cricetulus griseus
condition.info: chinese hamster
Decide using Drug uptake: a value greater than or equal to 3 nmol/mg is T, a smaller one is F.

[[record]]
compound = "CNc1cccc2c1[C@H](C)C[C@]1(C)C(NCCCNCCCCN)=Nc3ccccc3[C@H]21"
classification = "F"

[[record]]
compound = "CNc1ccc(C2c3ccccc3N=C(NCCCNCCCCN)C2(C)C)cc1 (stereo not given)"
classification = "F"

[[record]]
compound = "CNc1ccc(C2c3ccccc3N=C(NCCCCN)C2(C)C)cc1 (stereo not given)"
classification = "T"

[[record]]
compound = "CC1C[C@]2(C)C(NCCCNCCCCNCCCN)=Nc3ccccc3[C@@H]2N(C)c2ccccc21 (stereo not given in full)"
classification = "F"


API: the following record is the query input.
Is reported Drug uptake greater than or equal to 3 nmol/mg here: CN(c1ccccc1)C1c2ccccc2N=C(NCCCNCCCCNCCCN)C1(C)C (stereo not given) T

----------
test.system: Phosphodiesterase 1 (Bos taurus, UniProt Q01061+P14100)
experimental.protocol: Inhibition of bovine calmodulin-activated cAMP dependent phosphodiesterase
Assay type: protein assay
Lab note - cut at 50 µM for IC50: true (1) if strictly below, false (0) if not.

[[record]]
compound = "CNc1ccc(C2c3ccccc3N=C(NCCCNCCCCN)C2(C)C)cc1 (stereo not given)"
classification = "false (0)"

[[record]]
compound = "CNc1ccc(C2c3ccccc3N=C(NCCCCN)C2(C)C)cc1 (stereo not given)"
classification = "false (0)"

[[record]]
compound = "CNc1cccc2c1[C@H](C)C[C@]1(C)C(NCCCNCCCCNCCCN)=Nc3ccccc3[C@H]21"
classification = "true (1)"


API: the following record is the query input.
Input CNc1cccc2c1[C@H](C)C[C@]1(C)C(NCCCCN)=Nc3ccccc3[C@H]21 ; condition: IC50 strictly below 50 µM. Does it hold? false (0)

----------
Tested on: CHO-MG
experimental.protocol: Inhibition of cell growth in CHO-MG cells in the presence of DFMO
Format: functional, cell-based
condition.info: Cricetulus griseus
measure.name: pIC50
Scale note: pIC50 = -log10(concentration in M).

[[record]]
molecule = "CNc1cccc2c1[C@H](C)C[C@]1(C)C(NCCCNCCCCNCCCN)=Nc3ccccc3[C@H]21"
test_system = "CHO-MG"
value = 4.64

[[record]]
molecule = "CNc1ccc(C2c3ccccc3N=C(NCCCNCCCCNCCCN)C2(C)C)cc1 (stereo unspecified)"
test_system = "CHO-MG"
value = 4.64

[[record]]
molecule = "CN(c1ccccc1)C1c2ccccc2N=C(NCCCCN)C1(C)C (stereo unspecified)"
test_system = "CHO-MG"
value = 4.89


Turning to the following molecule.
The measured pIC50 associated with CC1C[C@]2(C)C(NCCCNCCCCNCCCN)=Nc3ccccc3[C@@H]2N(C)c2ccccc21 (stereo partly specified) reads 4.57
